Target: RAC-alpha serine/threonine-protein kinase (Homo sapiens, UniProt P31749)
Sequence (P31749 whole entry): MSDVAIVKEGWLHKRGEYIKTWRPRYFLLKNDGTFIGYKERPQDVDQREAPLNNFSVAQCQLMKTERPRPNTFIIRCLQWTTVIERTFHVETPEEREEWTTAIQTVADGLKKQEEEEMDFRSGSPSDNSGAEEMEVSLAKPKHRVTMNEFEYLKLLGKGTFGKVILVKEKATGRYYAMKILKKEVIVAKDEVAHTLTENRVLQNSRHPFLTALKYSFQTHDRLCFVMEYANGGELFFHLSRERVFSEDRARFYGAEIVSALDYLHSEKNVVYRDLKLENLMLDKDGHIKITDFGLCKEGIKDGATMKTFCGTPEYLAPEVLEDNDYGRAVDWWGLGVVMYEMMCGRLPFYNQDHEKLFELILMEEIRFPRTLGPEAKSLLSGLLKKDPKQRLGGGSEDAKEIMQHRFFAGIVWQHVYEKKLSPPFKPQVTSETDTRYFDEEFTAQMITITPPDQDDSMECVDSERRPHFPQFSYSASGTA
Experiment: Inhibition of Akt using RPRTSSF peptide and [gamma32]ATP at 5 uM by cell-free radioactive assay relative to control
*1 amine or outer side, *2 acyl side, *3 side chain or, on linkers, in order; H or OH if unused. Where a SMILES comes first, the peptide text is derived from it. Bridges are numbered along the chain shown (N, C = ends). [ ]: non-standard residue; d: D form. N(6-aminohexyl)Gly = O=C(CN(CCCCCCN[*:3])[*:1])[*:2]; NGly(3-aminopropyl) = O=C(CN(CCCN[*:3])[*:1])[*:2]; N(2-Aminoethyl)Gly = O=C(CN(CCN[*:3])[*:1])[*:2]; Adipoyl = O=C(CCCCC(=O)[*:2])[*:1]; Glutaryl = O=C(CCCC(=O)[*:2])[*:1]; Gly(N-(CH2)6NH2) = NCCCCCCNCC(=O)O; Gly(N-2-aminoethyl) = NCCNCC(=O)O; Cha = N[C@@H](CC1CCCCC1)C(=O)O; hLeu = CC(C)CC[C@H](N)C(=O)O; Nva = CCC[C@H](N)C(=O)O; Dap = NC[C@H](N)C(=O)O; CO = O=C([*:1])[*:2]; Nlys = NCCCCNCC(=O)O
Measured quantity: inhibition

Documented inhibition of CCC[C@@H]1NC(=O)[C@H](CCCNC(=N)N)NC(=O)CN(C(=O)[C@@H](N)CCCNC(=N)N)CCCCCCNC(=O)NCCCN(CC(N)=O)C(=O)[C@H](CCC(C)C)NC(=O)[C@H](CN)NC(=O)[C@H](Cc2ccc(O)cc2)NC1=O (H-R[N(6-aminohexyl)Gly]R[Nva]Y[Dap][hLeu][NGly(3-aminopropyl)]-NH2; linker 2-8 via CO) : 100%

CCC[C@H](NC(=O)[C@H](CCCNC(=N)N)NC(=O)[C@H](CCCCN)NC(=O)[C@@H](N)CCCNC(=N)N)C(=O)N[C@@H](Cc1ccc(O)cc1)C(=O)N[C@@H](CN)C(=O)N[C@@H](CCC(C)C)C(N)=O yielded inhibition of 92%

Reported inhibition of CCC[C@@H]1NC(=O)[C@H](CCCNC(=N)N)NC(=O)CN(C(=O)[C@@H](N)CCCNC(=N)N)CCNC(=O)NCCCCCCN(CC(N)=O)C(=O)[C@H](CCC(C)C)NC(=O)[C@H](CN)NC(=O)[C@H](Cc2ccc(O)cc2)NC1=O (H-R[N(2-Aminoethyl)Gly]R[Nva]Y[Dap][hLeu][N(6-aminohexyl)Gly]-NH2; linker 2-8 via CO) : 100%

For reference, reported inhibition for CCC[C@@H]1NC(=O)[C@H](CCCNC(=N)N)NC(=O)CN(C(=O)[C@@H](N)CCCNC(=N)N)CCCCCCNC(=O)NCCCCN(CC(N)=O)C(=O)[C@H](CCC(C)C)NC(=O)[C@H](CN)NC(=O)[C@H](Cc2ccc(O)cc2)NC1=O (H-R[N(6-aminohexyl)Gly]R[Nva]Y[Dap][hLeu][Nlys]-NH2; linker 2-8 via CO) stands at 100%

Note to self: inhibition recorded for CCC[C@H](NC(=O)[C@H](CCCNC(=N)N)NC(=O)CNCCCCCCN)C(=O)N[C@@H](Cc1ccc(O)cc1)C(=O)N[C@@H](CN)C(=O)N[C@@H](CCC(C)C)C(=O)N(CCN)CC(N)=O (H-[Gly(N-(CH2)6NH2)]R[Nva]Y[Dap][hLeu][Gly(N-2-aminoethyl)]-NH2) was 64%

Entry CCC[C@H](NC(=O)[C@H](CCCNC(=N)N)NC(=O)[C@H](C)NC(=O)[C@@H](N)CCCNC(=N)N)C(=O)N[C@@H](Cc1ccc(O)cc1)C(=O)N[C@@H](CN)C(=O)N[C@@H](CCC(C)C)C(N)=O , inhibition reported as 81%

Briefly, inhibition measured for CCC[C@H](NC(=O)[C@H](CCCNC(=N)N)NC(=O)[C@H](CC1CCCCC1)NC(=O)[C@@H](N)CCCNC(=N)N)C(=O)N[C@@H](Cc1ccc(O)cc1)C(=O)N[C@@H](CN)C(=O)N[C@@H](CCC(C)C)C(N)=O (H-R[Cha]R[Nva]Y[Dap][hLeu]-NH2) : 85%

Item: CCC[C@@H]1NC(=O)[C@H](CCCNC(=N)N)NC(=O)[C@@H]2CCCN2C(=O)[C@H](CCCNC(=N)N)NC(=O)CCCCC(=O)NCCCCCCN(CC(N)=O)C(=O)[C@H](CCC(C)C)NC(=O)[C@H](CN)NC(=O)[C@H](Cc2ccc(O)cc2)NC1=O (RPR[Nva]Y[Dap][hLeu][N(6-aminohexyl)Gly]-NH2; linker N-8 via Adipoyl) | inhibition: 30%

Entry CCC[C@H](NC(=O)[C@H](CCCNC(=N)N)NC(=O)[C@H](CCC)NC(=O)[C@@H](N)CCCNC(=N)N)C(=O)N[C@@H](Cc1ccc(O)cc1)C(=O)N[C@@H](CN)C(=O)N[C@@H](CCC(C)C)C(N)=O (H-R[Nva]R[Nva]Y[Dap][hLeu]-NH2) , inhibition reported as 80%

// recorded inhibition for CCC[C@@H]1NC(=O)[C@H](CCCNC(=N)N)NC(=O)CN(C(=O)[C@@H](N)CCCNC(=N)N)CCNC(=O)NCCN(CC(N)=O)C(=O)[C@H](CCC(C)C)NC(=O)[C@H](CN)NC(=O)[C@H](Cc2ccc(O)cc2)NC1=O (H-R[N(2-Aminoethyl)Gly]R[Nva]Y[Dap][hLeu][N(2-Aminoethyl)Gly]-NH2; linker 2-8 via CO) : 30%

Sample CCC[C@H](NC(=O)[C@H](CCCNC(=N)N)NC(=O)CNCCN)C(=O)N[C@@H](Cc1ccc(O)cc1)C(=O)N[C@@H](CN)C(=O)N[C@@H](CCC(C)C)C(=O)N(CCN)CC(N)=O (H-[Gly(N-2-aminoethyl)]R[Nva]Y[Dap][hLeu][Gly(N-2-aminoethyl)]-NH2) ; inhibition observed: 67%

What the record says about CCC[C@@H]1NC(=O)[C@H](CCCNC(=N)N)NC(=O)[C@@H]2CCCN2C(=O)[C@H](CCCNC(=N)N)NC(=O)CCCC(=O)NCCCCCCN(CC(N)=O)C(=O)[C@H](CCC(C)C)NC(=O)[C@H](CN)NC(=O)[C@H](Cc2ccc(O)cc2)NC1=O (RPR[Nva]Y[Dap][hLeu][N(6-aminohexyl)Gly]-NH2; linker N-8 via Glutaryl) : inhibition is 32%

Entry CCC[C@H](NC(=O)[C@H](CCCNC(=N)N)NC(=O)CNCCCCN)C(=O)N[C@@H](Cc1ccc(O)cc1)C(=O)N[C@@H](CN)C(=O)N[C@@H](CCC(C)C)C(=O)N(CCN)CC(N)=O (H-[Nlys]R[Nva]Y[Dap][hLeu][Gly(N-2-aminoethyl)]-NH2) , inhibition reported as 66%

----------
Biological target: RAC-alpha serine/threonine-protein kinase (Homo sapiens)
Assay: Inhibition of Akt using RPRTSSF peptide and [gamma32]ATP at 5 uM by cell-free radioactive assay relative to control
*1 amine or outer side, *2 acyl side, *3 side chain or, on linkers, in order; H or OH if unused. Where a SMILES comes first, the peptide text is derived from it. Bridges are numbered along the chain shown (N, C = ends). [ ]: non-standard residue; d: D form. N(6-aminohexyl)Gly = O=C(CN(CCCCCCN[*:3])[*:1])[*:2]; NGly(3-aminopropyl) = O=C(CN(CCCN[*:3])[*:1])[*:2]; N(2-Aminoethyl)Gly = O=C(CN(CCN[*:3])[*:1])[*:2]; Adipoyl = O=C(CCCCC(=O)[*:2])[*:1]; hLeu = CC(C)CC[C@H](N)C(=O)O; Nle = CCCC[C@H](N)C(=O)O; Nva = CCC[C@H](N)C(=O)O; Dap = NC[C@H](N)C(=O)O; CO = O=C([*:1])[*:2]; Nlys = NCCCCNCC(=O)O
Give inhibition for every item shown.
Record the value in %, omitting the unit from your answer.

According to the records, this molecule CCC[C@@H]1NC(=O)[C@H](CCCNC(=N)N)NC(=O)[C@@H]2CCCN2C(=O)[C@H](CCCNC(=N)N)NC(=O)CCCCC(=O)NCCCCN(CC(N)=O)C(=O)[C@H](CCC(C)C)NC(=O)[C@H](CN)NC(=O)[C@H](Cc2ccc(O)cc2)NC1=O (RPR[Nva]Y[Dap][hLeu][Nlys]-NH2; linker N-8 via Adipoyl) displays inhibition of 18

Record CCC[C@@H]1NC(=O)[C@H](CCCNC(=N)N)NC(=O)CN(C(=O)[C@@H](N)CCCNC(=N)N)CCCCNC(=O)NCCN(CC(N)=O)C(=O)[C@H](CCC(C)C)NC(=O)[C@H](CN)NC(=O)[C@H](Cc2ccc(O)cc2)NC1=O (H-R[Nlys]R[Nva]Y[Dap][hLeu][N(2-Aminoethyl)Gly]-NH2; linker 2-8 via CO) . Reported inhibition: 84

The recorded inhibition for entry CCC[C@@H]1NC(=O)[C@H](CCCNC(=N)N)NC(=O)CN(C(=O)[C@@H](N)CCCNC(=N)N)CCCCCCNC(=O)NCCN(CC(N)=O)C(=O)[C@H](CCC(C)C)NC(=O)[C@H](CN)NC(=O)[C@H](Cc2ccc(O)cc2)NC1=O (H-R[N(6-aminohexyl)Gly]R[Nva]Y[Dap][hLeu][N(2-Aminoethyl)Gly]-NH2; linker 2-8 via CO) equals 68

Entry CCCC[C@H](NC(=O)[C@@H](N)CCCNC(=N)N)C(=O)N[C@@H](CCCNC(=N)N)C(=O)N[C@@H](CCC)C(=O)N[C@@H](Cc1ccc(O)cc1)C(=O)N[C@@H](CN)C(=O)N[C@@H](CCC(C)C)C(N)=O (H-R[Nle]R[Nva]Y[Dap][hLeu]-NH2) , inhibition reported as 82

get_value(item= CCC[C@H](NC(=O)[C@H](CCCNC(=N)N)NC(=O)[C@H](Cc1ccc(O)cc1)NC(=O)[C@@H](N)CCCNC(=N)N)C(=O)N[C@@H](Cc1ccc(O)cc1)C(=O)N[C@@H](CN)C(=O)N[C@@H](CCC(C)C)C(N)=O , readout=inhibition) returns 74

// sample CCC[C@@H]1NC(=O)[C@H](CCCNC(=N)N)NC(=O)CN(C(=O)[C@@H](N)CCCNC(=N)N)CCCCCCNC(=O)NCCCCCCN(CC(N)=O)C(=O)[C@H](CCC(C)C)NC(=O)[C@H](CN)NC(=O)[C@H](Cc2ccc(O)cc2)NC1=O (H-R[N(6-aminohexyl)Gly]R[Nva]Y[Dap][hLeu][N(6-aminohexyl)Gly]-NH2; linker 2-8 via CO) , its inhibition was 39

Quick note, inhibition for CCC[C@@H]1NC(=O)[C@H](CCCNC(=N)N)NC(=O)CN(C(=O)[C@@H](N)CCCNC(=N)N)CCCCNC(=O)NCCCN(CC(N)=O)C(=O)[C@H](CCC(C)C)NC(=O)[C@H](CN)NC(=O)[C@H](Cc2ccc(O)cc2)NC1=O (H-R[Nlys]R[Nva]Y[Dap][hLeu][NGly(3-aminopropyl)]-NH2; linker 2-8 via CO) landed at 54
